# assayed_system: adenosine A2b receptor (Homo sapiens)
# Construct: expressed in transfected cells; host or cells: CHO (Chinese Hamster Ovary)
# Sequence (P29275 whole entry): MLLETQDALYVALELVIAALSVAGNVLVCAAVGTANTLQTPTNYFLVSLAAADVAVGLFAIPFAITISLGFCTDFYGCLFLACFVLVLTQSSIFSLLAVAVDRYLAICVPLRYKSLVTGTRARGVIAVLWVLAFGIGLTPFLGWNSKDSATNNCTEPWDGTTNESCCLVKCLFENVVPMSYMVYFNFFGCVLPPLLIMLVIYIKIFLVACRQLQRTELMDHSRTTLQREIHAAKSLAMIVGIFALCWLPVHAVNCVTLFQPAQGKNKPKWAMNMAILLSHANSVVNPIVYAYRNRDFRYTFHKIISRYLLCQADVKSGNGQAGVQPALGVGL
# test_protocol: Indirect determination of adenosine agonism by way of gene expression (luciferase reporter), A2b cells
# Assay type: cell-based
# conditions: CHO cells stably transfected with A2b receptor cDNA; 50% of maximum stimulation
pEC50: −log10 of the molar value.
pEC50 vs 7: at or above is Met, below is Not met.

{"columns": ["structure_string", "group"],
 "data": [
  ["COC(=O)c1ccc(-c2nc(CSc3nc4c(c(-c5ccccc5)c3C#N)CCC4)cs2)cc1", "Not met"],
  ["Cc1nc(N)c2c(-c3ccc(OCCO)cc3)c(C#N)c(SCc3csc(-c4ccc(Cl)cc4)n3)nc2n1", "Met"],
  ["N#Cc1c(SCc2csc(-c3ccc(Cl)cc3)n2)nc2[nH]c(=O)[nH]c(=O)c2c1-c1ccc(OCCO)cc1", "Not met"],
  ["N#Cc1c(SCc2csc(-c3ccc(Cl)cc3)n2)nc2c(c1-c1ccc(OCCO)cc1)C(=O)CCC2", "Not met"],
  ["Cc1nc2nc(SCc3csc(-c4ccc(Cl)cc4)n3)c(C#N)c(-c3ccc(OCCO)cc3)c2c(=O)[nH]1", "Not met"]
]}

* * *

# assayed_system: adenosine A1 receptor (Homo sapiens, UniProt P30542)
# Construct: expressed in transfected cells; host or cells: CHO (Chinese Hamster Ovary)
# Sequence (P30542 whole entry): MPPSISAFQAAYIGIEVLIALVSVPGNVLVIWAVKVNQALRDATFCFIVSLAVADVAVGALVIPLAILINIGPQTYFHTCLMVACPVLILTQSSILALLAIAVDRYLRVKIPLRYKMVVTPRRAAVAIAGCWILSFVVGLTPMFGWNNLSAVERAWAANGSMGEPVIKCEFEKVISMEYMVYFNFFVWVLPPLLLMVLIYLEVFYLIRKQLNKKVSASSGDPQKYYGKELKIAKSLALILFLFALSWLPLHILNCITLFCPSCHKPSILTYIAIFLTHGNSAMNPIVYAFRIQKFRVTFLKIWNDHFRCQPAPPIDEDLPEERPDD
# test_protocol: Indirect determination of adenosine agonism by way of gene expression (luciferase reporter), A1 cells
# Format: cell-based
# conditions: CHO cells stably transfected with A1 receptor cDNA; 1 μM forskolin; 50% inhibition of luciferase answer
recorded_endpoint: log10(EC50) (log10 of the value in nM)

{"columns": ["compound", "assayed_system", "meas_value"],
 "data": [
  ["N#Cc1c(SCc2csc(-c3ccc(Cl)cc3)n2)nc2c(c1-c1ccc(OCCO)cc1)C(=O)CCC2 [Example 2]", "adenosine A1 receptor (Homo sapiens, UniProt P30542)", 0.90],
  ["N#Cc1c(SCc2csc(-c3ccc(Cl)cc3)n2)nc2[nH]c(=O)[nH]c(=O)c2c1-c1ccc(OCCO)cc1 [Example 12]", "adenosine A1 receptor (Homo sapiens, UniProt P30542)", 0.30],
  ["N#Cc1c(SCc2csc(-c3ccc(Cl)cc3)n2)nc2c(c1-c1ccc(OC[C@@H](O)CO)cc1)C(=O)CCC2 [Example 3]", "adenosine A1 receptor (Homo sapiens, UniProt P30542)", 0.41],
  ["Cc1nc2nc(SCc3csc(-c4ccc(Cl)cc4)n3)c(C#N)c(-c3ccc(OCCO)cc3)c2c(=O)[nH]1 [Example 10]", "adenosine A1 receptor (Homo sapiens, UniProt P30542)", -0.40],
  ["COC(=O)c1ccc(-c2nc(CSc3nc4c(c(-c5ccccc5)c3C#N)CCC4)cs2)cc1 [Example 13]", "adenosine A1 receptor (Homo sapiens, UniProt P30542)", 1.32]
]}

* * *

EC50 values by entry
# assayed_system: adenosine A2a receptor (Homo sapiens)
# Sequence (P29274 whole entry): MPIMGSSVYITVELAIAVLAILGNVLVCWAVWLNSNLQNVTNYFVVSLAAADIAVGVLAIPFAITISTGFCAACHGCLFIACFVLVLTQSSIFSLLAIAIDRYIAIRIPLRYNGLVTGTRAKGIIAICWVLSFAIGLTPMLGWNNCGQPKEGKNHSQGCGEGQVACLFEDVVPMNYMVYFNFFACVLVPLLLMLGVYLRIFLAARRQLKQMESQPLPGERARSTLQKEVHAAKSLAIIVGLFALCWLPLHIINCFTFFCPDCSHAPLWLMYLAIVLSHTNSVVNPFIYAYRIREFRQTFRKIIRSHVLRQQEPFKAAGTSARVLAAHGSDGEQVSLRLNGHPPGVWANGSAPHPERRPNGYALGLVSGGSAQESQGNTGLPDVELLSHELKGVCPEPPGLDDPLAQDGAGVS
# test_protocol: Indirect determination of adenosine agonism by way of gene expression (luciferase reporter), A2a cells
# conditions: CHO cells stably transfected with A2a receptor cDNA; 50% of maximum stimulation

{"columns": ["molecule", "limit_operator", "EC50 / nM"],
 "data": [
  ["Cc1nc(N)c2c(-c3ccc(OCCO)cc3)c(C#N)c(SCc3csc(-c4ccc(Cl)cc4)n3)nc2n1 [Example 9]", "=", 68],
  ["N#Cc1c(SCc2csc(-c3ccc(Cl)cc3)n2)nc2c(c1-c1ccc(OCCO)cc1)C(=O)CCC2 [Example 2]", ">", 3000],
  ["N#Cc1c(SCc2csc(-c3ccc(Cl)cc3)n2)nc2[nH]c(=O)[nH]c(=O)c2c1-c1ccc(OCCO)cc1 [Example 12]", "=", 2000],
  ["N#Cc1c(SCc2csc(-c3ccc(Cl)cc3)n2)nc2c(c1-c1ccc(OC[C@@H](O)CO)cc1)C(=O)CCC2 [Example 3]", ">", 3000],
  ["Cc1nc2nc(SCc3csc(-c4ccc(Cl)cc4)n3)c(C#N)c(-c3ccc(OCCO)cc3)c2c(=O)[nH]1 [Example 10]", "=", 1370]
]}
